pIC50: −log10 of the molar value.
Here we list compounds with their recorded pIC50 when tested on UniProt:P14780.
Sequence (P14780 94-707): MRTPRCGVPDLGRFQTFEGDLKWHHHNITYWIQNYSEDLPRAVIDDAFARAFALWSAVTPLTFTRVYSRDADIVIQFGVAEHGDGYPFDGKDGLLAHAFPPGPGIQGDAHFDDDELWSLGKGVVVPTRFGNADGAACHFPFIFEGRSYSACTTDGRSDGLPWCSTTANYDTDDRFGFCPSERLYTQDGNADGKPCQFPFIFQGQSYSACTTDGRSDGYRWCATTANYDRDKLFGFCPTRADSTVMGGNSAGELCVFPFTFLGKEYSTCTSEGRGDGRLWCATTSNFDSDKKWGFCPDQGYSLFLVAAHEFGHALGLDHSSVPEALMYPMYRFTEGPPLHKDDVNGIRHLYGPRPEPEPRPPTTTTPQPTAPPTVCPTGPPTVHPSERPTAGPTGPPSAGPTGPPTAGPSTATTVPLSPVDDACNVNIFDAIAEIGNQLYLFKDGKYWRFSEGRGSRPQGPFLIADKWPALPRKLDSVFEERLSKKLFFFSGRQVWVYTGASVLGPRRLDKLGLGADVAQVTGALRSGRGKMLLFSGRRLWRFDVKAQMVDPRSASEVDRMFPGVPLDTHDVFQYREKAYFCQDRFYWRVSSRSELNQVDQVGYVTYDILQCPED
Measurement name: pIC50

Sample answers from the record:
[[record]]
smiles = "Cc1cccc(C(=O)NO)c1N(C)S(=O)(=O)c1ccc(OCCCNC(=O)c2cc3ccccc3[nH]2)cc1"
observed_value = 6.52

[[record]]
smiles = "Cc1cccc(C(=O)NO)c1N(C)S(=O)(=O)c1ccc(OCCCNC(=O)c2cc3ccccc3o2)cc1"
observed_value = 6.29


P. Cc1cccc(C(=O)NO)c1N(C)S(=O)(=O)c1ccc(OCCNC(=O)c2ccc3ccccc3n2)cc1
Q. Cc1cccc(C(=O)NO)c1N(C)S(=O)(=O)c1ccc(OCCCCNC(=O)c2cc3ccccc3o2)cc1
### Prompt Which value of pIC50 is numerically greater: that of P or that of Q ? Kindly give the label for the entry you pick.
### Response Q

----------
pIC50: −log10 of the molar value.
Here we list compounds with their recorded pIC50 when tested on UniProt P45452.
Measurement name: pIC50

Sample answers from the record:
[[record]]
smiles = "Cc1cc(C)c(N(Cc2ccccc2)S(=O)(=O)c2ccc(OCCNC(=O)c3cc4ccccc4o3)cc2)c(C(=O)NO)c1"
observed_value = 7.77

[[record]]
smiles = "Cc1cccc(C(=O)NO)c1N(C)S(=O)(=O)c1ccc(OCCCNC(=O)c2ccc3c(c2)OCO3)cc1"
observed_value = 6.96


1. Cc1cccc(C(=O)NO)c1N(C)S(=O)(=O)c1ccc(OCCNC(=O)c2ccc3ccccc3n2)cc1
2. Cc1cccc(C(=O)NO)c1N(C)S(=O)(=O)c1ccc(OCCCNC(=O)c2cc3ccccc3[nH]2)cc1
3. Cc1cccc(C(=O)NO)c1N(C)S(=O)(=O)c1ccc(OCCCNC(=O)c2cc3ccccc3o2)cc1
4. Cc1cccc(C(=O)NO)c1N(C)S(=O)(=O)c1ccc(OCCNC(=O)c2cc3ccccc3s2)cc1
### Prompt rank_up(items): orders items by reported pIC50 in ascending numerical order. List the labels according to the requested ordering.
### Response 4, 2, 1, 3

----------
Target: MMP-1 (Homo sapiens, UniProt P03956)
Sequence (P03956 100-469): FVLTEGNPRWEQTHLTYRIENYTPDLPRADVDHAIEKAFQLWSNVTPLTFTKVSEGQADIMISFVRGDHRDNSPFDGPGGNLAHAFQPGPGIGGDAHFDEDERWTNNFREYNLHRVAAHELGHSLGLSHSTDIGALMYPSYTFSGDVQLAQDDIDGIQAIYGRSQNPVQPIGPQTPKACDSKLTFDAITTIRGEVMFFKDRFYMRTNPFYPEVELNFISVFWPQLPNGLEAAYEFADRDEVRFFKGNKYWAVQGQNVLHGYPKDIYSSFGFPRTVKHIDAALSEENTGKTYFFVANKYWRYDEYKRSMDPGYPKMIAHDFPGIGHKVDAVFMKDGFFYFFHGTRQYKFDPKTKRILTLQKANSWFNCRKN
Assay: MMP-1 inhibition (thiopeptide or fluorescent peptide substrate assay)
Type: biochemical
pIC50: −log10 of the molar value.
Measurement name: pIC50

Sample answers from the record:
[[record]]
molecule = "Cc1cccc(C(=O)NO)c1N(C)S(=O)(=O)c1ccc(OCCCNC(=O)c2cc3ccccc3[nH]2)cc1 [Example 10]"
measurement_name = "pIC50"
observed_value = 5.25

[[record]]
molecule = "Cc1cccc(C(=O)NO)c1N(C)S(=O)(=O)c1ccc(OCCCCNC(=O)c2cc3ccccc3o2)cc1 [Example 8]"
measurement_name = "pIC50"
observed_value = 5.29

[[record]]
molecule = "Cc1cccc(C(=O)NO)c1N(C)S(=O)(=O)c1ccc(OCCCNC(=O)c2cc3ccccc3o2)cc1 [Example 6]"
measurement_name = "pIC50"
observed_value = 5.26


1. Cc1cccc(C(=O)NO)c1N(C)S(=O)(=O)c1ccc(OCCNC(=O)c2ccc3ccccc3n2)cc1 [Example 4]
2. Cc1cccc(C(=O)NO)c1N(C)S(=O)(=O)c1ccc(OCCCNC(=O)c2ccc3c(c2)OCO3)cc1 [Example 14]
### Prompt Which value of pIC50 is numerically greater: that of 1 or that of 2 ? Kindly give the label for the entry you pick.
### Response 2

----------
Each item that follows carries a reported melting point.

Sample answers from the record:
[[record]]
molecule = "Cc1cccc(C(=O)NO)c1N(C)S(=O)(=O)c1ccc(OCCNC(=O)c2ccc3ccccc3n2)cc1 [Example 4]"
observed_value = "114 to 121 °C"

[[record]]
molecule = "Cc1cccc(C(=O)NO)c1N(C)S(=O)(=O)c1ccc(OCCCCNC(=O)c2cc3ccccc3o2)cc1 [Example 8]"
observed_value = "131 to 134 °C"


Now take the following molecule into account.
### Prompt Please indicate melting point recorded for Cc1cccc(C(=O)NO)c1N(C)S(=O)(=O)c1ccc(OCCNC(=O)c2cc3ccccc3s2)cc1 [Example 12]
### Response 169 to 171 °C

----------
Target: MMP-1 (Homo sapiens, UniProt P03956)
Test: MMP-1 inhibition (thiopeptide or fluorescent peptide substrate assay)
Type: biochemical
Details: cells printed in μM
Measurement name: IC50 (µM)
Dear colleague, please return just the value in µM, with no unit written.

### Prompt Please indicate IC50 recorded for Cc1cccc(C(=O)NO)c1N(C)S(=O)(=O)c1ccc(OCCCNC(=O)c2cc3ccccc3s2)cc1 [Example 27]
### Response 30

----------
Measurement name: melting point

Sample answers from the record:
[[record]]
compound = "Cc1cccc(C(=O)NO)c1N(C)S(=O)(=O)c1ccc(OCCCNC(=O)c2cc3ccccc3o2)cc1 [Example 6]"
observed_value = "148 to 150 °C"

[[record]]
compound = "Cc1cccc(C(=O)NO)c1N(C)S(=O)(=O)c1ccc(OCCCNC(=O)c2ccc3c(c2)OCO3)cc1 [Example 14]"
observed_value = "102 to 112 °C"


### Prompt Please indicate melting point recorded for Cc1cccc(C(=O)NO)c1N(C)S(=O)(=O)c1ccc(OCCCNC(=O)c2cc3ccccc3s2)cc1 [Example 27]
### Response 100 to 105 °C

### Prompt Please indicate melting point recorded for Cc1cccc(C(=O)NO)c1N(C)S(=O)(=O)c1ccc(OCCCNC(=O)c2cc3ccccc3[nH]2)cc1 [Example 10]
### Response 144 to 146 °C

----------
Biological target: tumor necrosis factor-alpa converting enzyme (TACE; Immunex) (Homo sapiens)
Construct: purchased Immunex
Sequence (P78536 215-824): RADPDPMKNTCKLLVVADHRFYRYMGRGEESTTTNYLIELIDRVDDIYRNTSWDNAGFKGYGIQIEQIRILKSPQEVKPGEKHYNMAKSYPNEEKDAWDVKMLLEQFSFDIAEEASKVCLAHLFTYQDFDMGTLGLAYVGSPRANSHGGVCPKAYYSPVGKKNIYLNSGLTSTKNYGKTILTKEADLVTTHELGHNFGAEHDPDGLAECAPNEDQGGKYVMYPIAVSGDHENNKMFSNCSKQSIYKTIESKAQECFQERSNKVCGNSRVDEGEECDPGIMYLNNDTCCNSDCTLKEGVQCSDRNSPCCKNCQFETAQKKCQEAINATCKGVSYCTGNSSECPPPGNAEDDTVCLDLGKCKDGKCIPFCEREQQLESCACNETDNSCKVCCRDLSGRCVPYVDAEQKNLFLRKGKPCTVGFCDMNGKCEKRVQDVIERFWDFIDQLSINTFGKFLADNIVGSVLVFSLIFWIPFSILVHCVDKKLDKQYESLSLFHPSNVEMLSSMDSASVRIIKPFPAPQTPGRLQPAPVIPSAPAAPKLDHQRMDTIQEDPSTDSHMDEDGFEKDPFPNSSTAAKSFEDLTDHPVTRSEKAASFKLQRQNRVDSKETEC
Experiment: TACE inhibition (fluorescent peptidyl substrate assay)
Assay type: biochemical
Conditions: 1 μM test compound
Experimental: Using 96-well black microtiter plates, each well receives a solution composed of 10 μL tumor necrosis factor-alpa converting enzyme (TACE; Immunex, final concentration 1 μg/mL), 70 μL Tris buffer, pH 7.4 containing 10% glycerol (final concentration 10 mM), and 10 μL of test compound solution in DMSO (final concentration 1 μM, DMSO concentration <1%) and incubated for 10 minutes at room temperature. […]
Measurement name: inhibition at 1 µM (%)
Dear colleague, please return just the value in %, with no unit written.

Sample answers from the record:
[[record]]
smiles = "Cc1cccc(C(=O)NO)c1N(C)S(=O)(=O)c1ccc(OCCCNC(=O)c2cc3ccccc3s2)cc1"
measurement_name = "inhibition at 1 µM"
units_label = "%"
observed_value = 22

[[record]]
smiles = "Cc1cc(C)c(N(Cc2ccccc2)S(=O)(=O)c2ccc(OCCNC(=O)c3cc4ccccc4o3)cc2)c(C(=O)NO)c1"
measurement_name = "inhibition at 1 µM"
units_label = "%"
observed_value = 18.9

[[record]]
smiles = "Cc1cccc(C(=O)NO)c1N(C)S(=O)(=O)c1ccc(OCCCNC(=O)c2ccc3c(c2)OCO3)cc1"
measurement_name = "inhibition at 1 µM"
units_label = "%"
observed_value = 42.1


### Prompt Please indicate inhibition at 1 µM recorded for `Cc1cccc(C(=O)NO)c1N(C)S(=O)(=O)c1ccc(OCCCNC(=O)c2cc3ccccc3o2)cc1`
### Response 21.3

----------
Each item that follows carries a reported inhibition at 1 µM.
Molecular target: tumor necrosis factor-alpa converting enzyme (TACE; Immunex) (Homo sapiens)
Construct: purchased Immunex
Experiment: TACE inhibition (fluorescent peptidyl substrate assay)
Type: biochemical
Details: 1 μM test compound
Dear colleague, please return just the value in %, with no unit written.

Sample answers from the record:
[[record]]
smiles = "Cc1cccc(C(=O)NO)c1N(C)S(=O)(=O)c1ccc(OCCNC(=O)c2cc3ccccc3s2)cc1"
units_label = "%"
observed_value = 15.2

[[record]]
smiles = "Cc1cccc(C(=O)NO)c1N(C)S(=O)(=O)c1ccc(OCCCNC(=O)c2cc3ccccc3[nH]2)cc1"
units_label = "%"
observed_value = 35.7

[[record]]
smiles = "Cc1cccc(C(=O)NO)c1N(C)S(=O)(=O)c1ccc(OCCCCNC(=O)c2cc3ccccc3o2)cc1"
units_label = "%"
observed_value = 43.6


Now take the following compound into account.
### Prompt Please indicate inhibition at 1 µM recorded for `Cc1cccc(C(=O)NO)c1N(C)S(=O)(=O)c1ccc(OCCNC(=O)c2ccc3ccccc3n2)cc1`
### Response 19.9
